pIC50: recorded values
Target: GSK3β (Homo sapiens, UniProt P49841)
Sequence (P49841 whole entry, species assumed): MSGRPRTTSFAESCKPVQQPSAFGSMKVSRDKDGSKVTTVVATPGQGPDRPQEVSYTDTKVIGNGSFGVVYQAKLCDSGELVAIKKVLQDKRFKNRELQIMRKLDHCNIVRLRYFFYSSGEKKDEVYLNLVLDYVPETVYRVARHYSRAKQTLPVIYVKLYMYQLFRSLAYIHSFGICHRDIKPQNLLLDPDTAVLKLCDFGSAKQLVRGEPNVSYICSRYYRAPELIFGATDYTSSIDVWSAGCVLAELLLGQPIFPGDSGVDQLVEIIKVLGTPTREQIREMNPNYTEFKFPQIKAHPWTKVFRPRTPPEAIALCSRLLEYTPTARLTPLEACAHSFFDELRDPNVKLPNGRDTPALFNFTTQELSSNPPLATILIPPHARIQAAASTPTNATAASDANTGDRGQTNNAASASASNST
Assay: GSK3β kinase assay (Caliper LabChip3000, fluoresceinated peptide substrate)
Assay type: biochemical
pIC50: −log10 of the molar value.

Molecule	pIC50
CC(C)C(=O)Nc1cc(C(=O)Nc2cnccc2-c2ccccc2)ccn1 [Example 185]	8.85
CC(C)(C)C(=O)Nc1cc(C(=O)Nc2cnccc2N2CCC(F)(F)CC2)ccn1 [Example 208]	8.38
O=C(Nc1cnccc1C1CCC1)c1ccnc(NC(=O)C2CC2)c1 [Example 41]	8.12
O=C(Nc1cncc(C2CCC2)c1)c1ccnc(NC(=O)C2CC2)c1 [Example 113]	9.00
CC1(C)COCCN1c1ccncc1NC(=O)c1ccnc(NC(=O)C2CC2)c1 [Example 90]	9.82
O=C(Nc1cncc(-c2ccccc2)c1)c1ccnc(NC(=O)C2CC(F)(F)C2)c1 [Example 214]	8.39

* * *

System: pTau
Assay: pTau assay (method not described)
Type: cell-based
Settings: read-out: pTau
IC50: recorded values

Compound	IC50 / nM
CC(C)C(=O)Nc1cc(C(=O)Nc2cncc(-c3ccccc3F)n2)ccn1 [Example 207]	160
O=C(Nc1cnccc1-c1ccc(Cl)cc1)c1ccnc(NC(=O)C2CC(F)C2)c1 (single isomer, unassigned) [Example 223]	150
CC(C)C(=O)Nc1cc(C(=O)Nc2cnccc2OCC(F)F)ccn1 [Example 204]	41
CC(C)C(=O)Nc1cc(C(=O)Nc2cnccc2OCC(F)(F)F)ccn1 [Example 203]	70
CC(C)C(=O)Nc1cc(C(=O)Nc2cnccc2-c2ccccc2)ccn1 [Example 185]	180
O=C(Nc1cnccc1N1CCCCCC1)c1ccnc(NC(=O)C2CC2)c1 [Example 53]	1200
CC1(C)CN(c2ccncc2NC(=O)c2ccnc(NC(=O)C3CC3)c2)CCO1 [Example 87]	25
O=C(Nc1cncc(N2CCCCC2)c1)c1ccnc(NC(=O)C2CC2)c1 [Example 108]	5400
O=C(Nc1c(N2CCOCC2)ccnc1F)c1ccnc(NC(=O)C2CC2)c1 [Example 88]	170
NC(=O)c1cncc(NC(=O)c2ccnc(NC(=O)C3CC3)c2)c1 [Example 105]	6900
O=C(Nc1cncc2ccccc12)c1ccnc(NC(=O)C2CC2)c1 [Example 6]	190
O=C(Nc1cncc(Cc2ccccc2)c1)c1ccnc(NC(=O)C2CC2)c1 [Example 110]	5600
CCOc1cccc(-c2cncc(NC(=O)c3ccnc(NC(=O)C4CC4)c3)c2)c1Cl [Example 158]	425
COc1cncc(NC(=O)c2ccnc(NC(=O)C3CC3)c2)c1 [Example 13]	550

* * *

pIC50: recorded values
Molecular target: GSK3β (Homo sapiens)
Test: GSK3β kinase assay (Caliper LabChip3000, fluoresceinated peptide substrate)
Assay type: biochemical
pIC50: −log10 of the molar value.

Chem Smiles	pIC50
O=C(Nc1cnccc1C(=O)C(F)(F)F)c1ccnc(NC(=O)C2CC2)c1	9.02
COc1cccc(-c2cncc(NC(=O)c3ccnc(NC(=O)C4CC4)c3)c2)c1F	8.43
CC(C)C(=O)Nc1cc(C(=O)Nc2cncc(-c3cc(F)ccc3F)c2)ccn1	8.34

* * *

Target: GSK3β (Homo sapiens)
Experiment: GSK3β kinase assay (Caliper LabChip3000, fluoresceinated peptide substrate)
Format: biochemical
pIC50: −log10 of the molar value.
Answer not fulfilled if pIC50 is under 8, and fulfilled if it is 8 or more.

Molecule	Study System	Class Label
CC1(C)CN(c2ccncc2NC(=O)c2ccnc(NC(=O)C3CC3)c2)CCO1	GSK3β (Homo sapiens)	fulfilled
O=C(Nc1cncc(-c2cccc(F)c2F)c1)c1ccnc(NC(=O)C2CCC(F)(F)C2)c1 (stereo not shown)	GSK3β (Homo sapiens)	fulfilled
O=C(Nc1cncc(N2CCOCC2)c1)c1ccnc(NC(=O)C2CC2)c1	GSK3β (Homo sapiens)	not fulfilled
CC(C)C(=O)Nc1cc(C(=O)Nc2cnccc2OCCN2CCOCC2)ccn1	GSK3β (Homo sapiens)	fulfilled
COc1ccccc1-c1cncc(NC(=O)c2ccnc(NC(=O)C3CC3)c2)c1	GSK3β (Homo sapiens)	fulfilled
O=C(Nc1cncc(-c2ccccc2Cl)c1)c1ccnc(NC(=O)C2CCC(F)(F)C2)c1 (stereo not shown)	GSK3β (Homo sapiens)	fulfilled
CC(C)C(=O)Nc1cc(C(=O)Nc2cnccc2OCC(C)(F)F)ccn1	GSK3β (Homo sapiens)	fulfilled
CC(C)C(=O)Nc1cc(C(=O)Nc2cnccc2OCC(F)F)ccn1	GSK3β (Homo sapiens)	fulfilled
O=C(Nc1cnccc1C1CCCCC1)c1ccnc(NC(=O)C2CC2)c1	GSK3β (Homo sapiens)	not fulfilled
O=C(Nc1cncc(N2CCCCC2)c1)c1ccnc(NC(=O)C2CC2)c1	GSK3β (Homo sapiens)	not fulfilled
C[C@H]1COCCN1c1ccncc1NC(=O)c1ccnc(NC(=O)C2CC2)c1	GSK3β (Homo sapiens)	fulfilled
CC1(C)CC(C(=O)Nc2cc(C(=O)Nc3cnccc3-c3ccccc3)ccn2)C1	GSK3β (Homo sapiens)	fulfilled
O=C(Nc1cnccc1C1CCCC1)c1ccnc(NC(=O)C2CC2)c1	GSK3β (Homo sapiens)	not fulfilled
Cc1ccncc1NC(=O)c1ccnc(NC(=O)C2CC2)c1	GSK3β (Homo sapiens)	not fulfilled
O=C(Nc1cnccc1N1CCOCC1)c1ccnc(NC(=O)C2CC2)c1	GSK3β (Homo sapiens)	fulfilled
CC(C)(F)C(=O)Nc1cc(C(=O)Nc2cnccc2-c2ccccc2)ccn1	GSK3β (Homo sapiens)	not fulfilled
O=C(Nc1cncc(-c2ccccc2F)c1)c1ccnc(NC(=O)C2CCC(F)(F)C2)c1 (stereo not shown)	GSK3β (Homo sapiens)	fulfilled
O=C(Nc1cncc(-c2ccccc2)c1)c1ccnc(NC(=O)C2CCCC2)c1	GSK3β (Homo sapiens)	fulfilled
O=C(Nc1cnccc1-c1ccc(Cl)cc1)c1ccnc(NC(=O)C2CCC(F)(F)C2)c1 (stereo not shown)	GSK3β (Homo sapiens)	fulfilled
O=C(Nc1cncc(-c2ccccc2F)c1)c1ccnc(NC(=O)C2CC2)c1	GSK3β (Homo sapiens)	fulfilled
CC(C)C(=O)Nc1cc(C(=O)Nc2cncc(-c3ccccc3F)c2)ccn1	GSK3β (Homo sapiens)	fulfilled
O=C(Nc1cnccc1N1CCCCC1)c1ccnc(NC(=O)C2CC2)c1	GSK3β (Homo sapiens)	fulfilled
CC(C)C(=O)Nc1cc(C(=O)Nc2cnccc2OCCC(C)(C)O)ccn1	GSK3β (Homo sapiens)	fulfilled
